The variants listed here are annotated with their yeast fitness.
B1: tRNA (parent)
chain: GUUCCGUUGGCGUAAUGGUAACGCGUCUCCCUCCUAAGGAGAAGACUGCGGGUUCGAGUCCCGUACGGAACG

# Variants of: B1
# assay protocol: yeast fitness relative to wild type (ratio to wild type); higher = fitter; tRNA-Arg(CCU), competitive growth, 37 C, YPD
This sample holds only a part of the variants without activity.
Write no unit; give the number alone.

Quick one: yeast fitness of A14U G23C C55A ?
0.559

Look up yeast fitness: C4A U64C G68C
0.971

May I ask what yeast fitness has been recorded for C11G A42G ?
0.649

Would you kindly share the measured yeast fitness for C4G U26A ?
0.796

Find the recorded yeast fitness belonging to C27U G41A U47C and report it.
1.08

Continuing:
Any idea what yeast fitness was measured for C11U A36G G48C A65C ?
0.675

Could you tell me which yeast fitness is on file for G18A C46A G63C ?
0.604

Fill blank: measured yeast fitness of the variant A20G C22U G67U is ____.
0.559

Please give the measured yeast fitness for this variant: C5U C46U U59G
0.538

Please look up its yeast fitness: C22G C24G G50A
0.694
